# TARGET_OR_TEST_SYSTEM: human GLP-1 receptor (Homo sapiens (Human))
# Sequence (P43220 24-463): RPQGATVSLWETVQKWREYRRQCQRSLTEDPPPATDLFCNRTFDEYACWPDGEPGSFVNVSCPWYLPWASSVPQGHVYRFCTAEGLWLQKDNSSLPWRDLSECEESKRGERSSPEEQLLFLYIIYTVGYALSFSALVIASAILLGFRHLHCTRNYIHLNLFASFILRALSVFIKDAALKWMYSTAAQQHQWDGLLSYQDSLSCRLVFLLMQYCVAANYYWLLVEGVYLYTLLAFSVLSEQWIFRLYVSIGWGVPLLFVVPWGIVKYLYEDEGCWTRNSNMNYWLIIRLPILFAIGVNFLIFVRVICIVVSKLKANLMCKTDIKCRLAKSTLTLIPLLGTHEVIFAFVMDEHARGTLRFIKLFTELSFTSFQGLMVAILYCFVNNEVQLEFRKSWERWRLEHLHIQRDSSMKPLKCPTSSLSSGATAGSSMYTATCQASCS
# EXPERIMENTAL_PARAMETERS: read-out: Mean EC50; cAMP, HTRF detection, 30 min at 37° C., HEK-293 cells expressing cloned human GLP-1 receptor
pEC50: −log10 of the molar value.

[
  {
    "COMPOUND_SMILES": "CC[C@@H](c1ccccc1)N1Cc2cc3c(cc2C[C@H]1C(=O)N[C@@H](Cc1ccc(-c2ccnc(C)c2C)cc1)C(=O)O)OC[C@H](c1ccc(OC)cc1)O3",
    "pEC50": 6.93
  },
  {
    "COMPOUND_SMILES": "Cc1nccc(-c2ccc(C[C@H](NC(=O)[C@@H]3Cc4cc5c(cc4CN3C(=O)c3ccccc3)O[C@@H](c3ccc(O[C@H]4CC[C@H](C)CC4)cc3)CO5)C(=O)O)cc2)c1C",
    "pEC50": 6.99
  },
  {
    "COMPOUND_SMILES": "CC[C@@H](c1ccccc1)N1Cc2cc3c(cc2C[C@H]1C(=O)N[C@@H](Cc1ccc(-c2ccnc(CF)c2)cc1)C(=O)O)OC[C@H](c1ccc(OCc2ccc(Cl)c(Cl)c2)cc1)O3",
    "pEC50": 7.47
  }
]

====

# TARGET_OR_TEST_SYSTEM: human GLP-1 receptor (Homo sapiens (Human))
# EXPERIMENTAL_PARAMETERS: read-out: Mean EC50; cAMP, HTRF detection, 30 min at 37° C., HEK-293 cells expressing cloned human GLP-1 receptor
pEC50: −log10 of the molar value.
Listed next: entries and their corresponding pEC50.

[
  {
    "MOLECULE": "CC(=O)N1CC(c2ccc(OCc3ccc(Cl)c(Cl)c3)cc2)Oc2cc3c(cc21)C[C@@H](C(=O)N[C@@H](Cc1ccc(-c2ccc(C#N)cc2)cc1)C(=O)O)N(C(=O)c1ccccc1)C3 (stereo in doubt)",
    "TARGET_OR_TEST_SYSTEM": "human GLP-1 receptor (Homo sapiens (Human))",
    "pEC50": 6.42
  },
  {
    "MOLECULE": "Cc1nccc(-c2ccc(C[C@H](NC(=O)[C@@H]3Cc4cc5c(cc4CN3C(=O)N[C@H](C)c3ccccc3)O[C@@H](c3ccc(OCc4cc(Cl)ccc4Cl)cc3)CO5)C(=O)O)cc2)c1C",
    "TARGET_OR_TEST_SYSTEM": "human GLP-1 receptor (Homo sapiens (Human))",
    "pEC50": 7.21
  },
  {
    "MOLECULE": "Cc1cc(Oc2ccc(C[C@H](NC(=O)[C@@H]3Cc4cc5c(cc4CN3C(=O)c3ccccc3)O[C@@H](c3ccc(OCc4ccc(Cl)c(Cl)c4)cc3)CO5)C(=O)O)cc2)ccn1",
    "TARGET_OR_TEST_SYSTEM": "human GLP-1 receptor (Homo sapiens (Human))",
    "pEC50": 6.82
  },
  {
    "MOLECULE": "Cc1nc(C(=O)N2Cc3cc4c(cc3C[C@H]2C(=O)N[C@@H](Cc2ccc(-c3ccnc(C)c3C)cc2)C(=O)O)OC[C@H](c2ccc(OCC3CCC(F)(F)CC3)cc2)O4)c(C)o1",
    "TARGET_OR_TEST_SYSTEM": "human GLP-1 receptor (Homo sapiens (Human))",
    "pEC50": 6.75
  },
  {
    "MOLECULE": "Cc1nccc(-c2ccc(C[C@H](NC(=O)[C@@H]3Cc4cc5c(cc4CN3C(=O)Nc3ccc(F)c(F)c3)O[C@@H](c3ccc(OCc4ccc(Cl)c(Cl)c4)cc3)CO5)C(=O)O)cc2)c1C",
    "TARGET_OR_TEST_SYSTEM": "human GLP-1 receptor (Homo sapiens (Human))",
    "pEC50": 6.73
  },
  {
    "MOLECULE": "Cc1cc(C(=O)N2Cc3cc4c(cc3C[C@H]2C(=O)N[C@@H](Cc2ccc(-c3ccnc(C)c3C)cc2)C(=O)O)OC[C@H](c2ccc(OCc3ccc(Cl)c(Cl)c3)cc2)O4)n(C)n1",
    "TARGET_OR_TEST_SYSTEM": "human GLP-1 receptor (Homo sapiens (Human))",
    "pEC50": 6.85
  },
  {
    "MOLECULE": "Cc1nc(C(=O)N2Cc3cc4c(cc3C[C@H]2C(=O)N[C@@H](Cc2ccc(-c3ccnc(C)c3C)cc2)C(=O)O)OC[C@H](c2ccc(O[C@H]3CC[C@@H](C(C)(C)C)CC3)cc2)O4)c(C)o1",
    "TARGET_OR_TEST_SYSTEM": "human GLP-1 receptor (Homo sapiens (Human))",
    "pEC50": 6.57
  },
  {
    "MOLECULE": "Cc1nc(C(=O)N2Cc3cc4c(cc3C[C@H]2C(=O)N[C@@H](Cc2ccc(-c3ccnc(C)c3C)cc2)C(=O)O)OC[C@H](c2ccc(OCc3ccc(Cl)cc3Cl)cc2)O4)c(C)o1",
    "TARGET_OR_TEST_SYSTEM": "human GLP-1 receptor (Homo sapiens (Human))",
    "pEC50": 6.86
  },
  {
    "MOLECULE": "Cc1nccc(-c2ccc(C[C@H](NC(=O)[C@@H]3Cc4cc5c(cc4CN3C(=O)Cc3ccccc3)O[C@@H](c3ccc(OCc4ccc(Cl)c(Cl)c4)cc3)CO5)C(=O)O)cc2)c1C",
    "TARGET_OR_TEST_SYSTEM": "human GLP-1 receptor (Homo sapiens (Human))",
    "pEC50": 6.28
  },
  {
    "MOLECULE": "Cc1nc(C(=O)N2Cc3cc4c(cc3C[C@H]2C(=O)N[C@@H](Cc2ccc(-c3ccnc(C)c3C)cc2)C(=O)O)OC[C@H](c2ccc(OCc3ccc(C)c(C)c3)cc2)O4)c(C)o1",
    "TARGET_OR_TEST_SYSTEM": "human GLP-1 receptor (Homo sapiens (Human))",
    "pEC50": 7.62
  }
]

====

Listed next: entries and their corresponding EC50.
# TARGET_OR_TEST_SYSTEM: UniProtKB P43220
# EXPERIMENTAL_PARAMETERS: read-out: Mean EC50; cAMP, HTRF detection, 30 min at 37° C., HEK-293 cells expressing cloned human GLP-1 receptor
MEASURED_PARAMETER: EC50

[
  {
    "MOLECULE": "Cc1nccc(-c2ccc(C[C@H](NC(=O)[C@@H]3Cc4cc5c(cc4CN3C(=O)C3CCCC3)O[C@@H](c3ccc(OCc4ccc(Cl)c(Cl)c4)cc3)CO5)C(=O)O)cc2)c1C",
    "MEASURED_PARAMETER": "EC50",
    "ENDPOINT_VALUE": "108 nM"
  },
  {
    "MOLECULE": "CCNc1nc(C)c(S(=O)(=O)N2Cc3cc4c(cc3C[C@H]2C(=O)N[C@@H](Cc2ccc(-c3ccc(C#N)cc3)cc2)C(=O)O)OC[C@@H](c2ccc(OCc3ccc(Cl)c(Cl)c3)cc2)O4)s1",
    "MEASURED_PARAMETER": "EC50",
    "ENDPOINT_VALUE": "328 nM"
  },
  {
    "MOLECULE": "CC[C@@H](c1ccccc1)N1Cc2cc3c(cc2C[C@H]1C(=O)N[C@@H](Cc1ccc(Oc2ccnc(C)c2C)cc1)C(=O)O)OC[C@H](c1cccc(OCc2ccc(Cl)c(Cl)c2)c1)O3",
    "MEASURED_PARAMETER": "EC50",
    "ENDPOINT_VALUE": "8 nM"
  },
  {
    "MOLECULE": "Cc1nc(C(=O)N2Cc3cc4c(cc3C[C@H]2C(=O)N[C@@H](Cc2ccc(-c3ccnc(C)c3C)cc2)C(=O)O)OC[C@H](c2ccc(OC3CCC(Cl)CC3)cc2)O4)c(C)o1 (some centres unmarked)",
    "MEASURED_PARAMETER": "EC50",
    "ENDPOINT_VALUE": "50 nM"
  },
  {
    "MOLECULE": "CC[C@@H](c1ccccc1)N1Cc2cc3c(cc2C[C@H]1C(=O)N[C@@H](Cc1ccc(-c2ccnc(C)c2C)cc1)C(=O)O)OC[C@H](c1ccc(OCc2ccc(Cl)cc2)cc1)O3",
    "MEASURED_PARAMETER": "EC50",
    "ENDPOINT_VALUE": "13 nM"
  }
]

====

# TARGET_OR_TEST_SYSTEM: human GLP-1 receptor (Homo sapiens (Human))
# EXPERIMENTAL_PARAMETERS: read-out: Mean EC50; cAMP, HTRF detection, 30 min at 37° C., HEK-293 cells expressing cloned human GLP-1 receptor

[
  {
    "MOLECULE": "Cc1nc(NCC2CC2)ccc1S(=O)(=O)N1Cc2cc3c(cc2C[C@H]1C(=O)N[C@@H](Cc1ccc(-c2ccc(C#N)cc2)cc1)C(=O)O)OC[C@H](c1ccc(OCc2ccc(Cl)c(Cl)c2)cc1)O3",
    "EC50 (nM)": 245
  },
  {
    "MOLECULE": "CC[C@@H](c1ccccc1)N1Cc2cc3c(cc2C[C@H]1C(=O)N[C@@H](Cc1ccc(-c2ccnc(C)c2C)cc1)C(=O)O)OC[C@H](c1ccc(OC(C)C)cc1)O3",
    "EC50 (nM)": 56
  },
  {
    "MOLECULE": "Cc1nccc(-c2ccc(C[C@H](NC(=O)[C@@H]3Cc4cc5c(cc4CN3C(=O)N[C@@H](C)c3ccccc3)O[C@@H](c3ccc(OCc4ccc(Cl)c(Cl)c4)cc3)CO5)C(=O)O)cc2)c1C",
    "EC50 (nM)": 82
  },
  {
    "MOLECULE": "Cc1nc(NC(=O)C(C)C)sc1S(=O)(=O)N1Cc2cc3c(cc2C[C@H]1C(=O)N[C@@H](Cc1ccc(-c2ccc(C#N)cc2)cc1)C(=O)O)OCC(c1ccc(OCc2ccc(Cl)c(Cl)c2)cc1)O3 (stereo in doubt)",
    "EC50 (nM)": 232
  },
  {
    "MOLECULE": "Cc1nccc(-c2ccc(C[C@H](NC(=O)[C@@H]3Cc4cc5c(cc4CN3C(=O)C3Cc4ccccc4C3)O[C@@H](c3ccc(OCc4ccc(Cl)c(Cl)c4)cc3)CO5)C(=O)O)cc2)c1C",
    "EC50 (nM)": 198
  },
  {
    "MOLECULE": "CC[C@@H](c1ccccc1)N1Cc2cc3c(cc2C[C@H]1C(=O)N[C@@H](Cc1ccc(-c2ccnc4ccccc24)cc1)C(=O)O)OC[C@H](c1ccc(OCc2ccc(Cl)c(Cl)c2)cc1)O3",
    "EC50 (nM)": 21
  },
  {
    "MOLECULE": "Cc1nccc(-c2ccc(C[C@H](NC(=O)[C@@H]3Cc4cc5c(cc4CN3C(=O)N3CCCC3)O[C@@H](c3ccc(OCc4ccc(Cl)c(Cl)c4)cc3)CO5)C(=O)O)cc2)c1C",
    "EC50 (nM)": 73
  },
  {
    "MOLECULE": "CCCCNc1nc(C)c(S(=O)(=O)N2Cc3cc4c(cc3C[C@H]2C(=O)N[C@@H](Cc2ccc(-c3ccc(C#N)cc3)cc2)C(=O)O)OCC(c2ccc(OCc3ccc(Cl)c(Cl)c3)cc2)O4)s1 (stereo in doubt)",
    "EC50 (nM)": 298
  },
  {
    "MOLECULE": "CC[C@@H](c1ccccc1)N1Cc2cc3c(cc2C[C@H]1C(=O)N[C@@H](Cc1ccc(-c2ccnc(C)c2C)cc1)C(=O)O)OC[C@H](c1ccc(OC2CCCCC2)cc1)O3",
    "EC50 (nM)": 62
  },
  {
    "MOLECULE": "CC[C@@H](c1ccccc1)N1Cc2cc3c(cc2C[C@H]1C(=O)N[C@@H](Cc1ccc(-c2ccnc(C)c2C)cc1)C(=O)O)OC[C@H](c1ccc(OCC2CCCC2)cc1)O3",
    "EC50 (nM)": 62
  },
  {
    "MOLECULE": "Cc1nc(C(=O)N2Cc3cc4c(cc3C[C@H]2C(=O)N[C@@H](Cc2ccc(-c3ccnc(C)c3C)cc2)C(=O)O)OC[C@H](c2ccc(O[C@H]3CC[C@H](C(C)(C)C)CC3)cc2)O4)c(C)o1",
    "EC50 (nM)": 64
  },
  {
    "MOLECULE": "Cc1nccc(-c2ccc(C[C@H](NC(=O)[C@@H]3Cc4cc5c(cc4CN3C(=O)N3CCCCC3)O[C@@H](c3ccc(OCc4ccc(Cl)c(Cl)c4)cc3)CO5)C(=O)O)cc2)c1C",
    "EC50 (nM)": 32
  },
  {
    "MOLECULE": "Cc1nc(N)sc1C(=O)N1Cc2cc3c(cc2C[C@H]1C(=O)N[C@@H](Cc1ccc(-c2ccc(C#N)cc2)cc1)C(=O)O)OCC(c1ccc(OCc2ccc(Cl)c(Cl)c2)cc1)O3 (stereo in doubt)",
    "EC50 (nM)": 312
  },
  {
    "MOLECULE": "CC[C@@H](c1ccccc1)N1Cc2cc3c(cc2C[C@H]1C(=O)N[C@@H](Cc1ccc(-c2ccnc(C)c2C)cc1)C(=O)O)OC[C@H](c1ccc(OCC(C)C)cc1)O3",
    "EC50 (nM)": 132
  },
  {
    "MOLECULE": "Cc1nccc(-c2ccc(C[C@H](NC(=O)[C@@H]3Cc4cc5c(cc4CN3C(=O)NC(C)(C)C)O[C@@H](c3ccc(OCc4ccc(Cl)c(Cl)c4)cc3)CO5)C(=O)O)cc2)c1C",
    "EC50 (nM)": 144
  },
  {
    "MOLECULE": "Cc1nccc(-c2ccc(C[C@H](NC(=O)[C@@H]3Cc4cc5c(cc4CN3C(=O)c3ccccc3)O[C@@H](c3ccc(OCc4ccc(Cl)c(Cl)c4)cc3)CO5)C(=O)O)cc2)c1C",
    "EC50 (nM)": 19
  },
  {
    "MOLECULE": "COCCNc1nc(C)c(S(=O)(=O)N2Cc3cc4c(cc3C[C@H]2C(=O)N[C@@H](Cc2ccc(-c3ccc(C#N)cc3)cc2)C(=O)O)OC[C@H](c2ccc(OCc3ccc(Cl)c(Cl)c3)cc2)O4)s1",
    "EC50 (nM)": 156
  },
  {
    "MOLECULE": "Cc1nccc(-c2ccc(C[C@H](NC(=O)[C@@H]3Cc4cc5c(cc4CN3C(=O)NC3CCCCC3)O[C@@H](c3ccc(OCc4ccc(Cl)c(Cl)c4)cc3)CO5)C(=O)O)cc2)c1C",
    "EC50 (nM)": 99
  },
  {
    "MOLECULE": "Cc1nc(NC(=O)C2CCC2)sc1S(=O)(=O)N1Cc2cc3c(cc2C[C@H]1C(=O)N[C@@H](Cc1ccc(-c2ccc(C#N)cc2)cc1)C(=O)O)OCC(c1ccc(OCc2ccc(Cl)c(Cl)c2)cc1)O3 (stereo in doubt)",
    "EC50 (nM)": 360
  }
]

All figures here come from patent US9175003B2.
